Test: NCI Yeast Anticancer Drug Screen. Data for the cln2 rad14 strain (AID 165);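 note: 0% = growth equal to vehicle treated cultures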
Settings: S. cerevisiae cln2 rad14 strain, at 50.0 µM, stronger effect = higher value
Description: Growth inhibition of yeast strains with defined genetic alterations is measured as a screen for potential anti-cancer activity. Selected strains with alterations in DNA damage repair or cell cycle control were exposed to compounds and growth inhibition was measured relative to vehicle treated controls. The strain used in this assay is cln2 rad14
About 79,000 compounds went through this panel and 15% of them were active in at least one assay; those are over-represented in the sample as a whole.
The compounds listed here are annotated with their growth inhibition.
property: growth inhibition (%)

- compound: "CCCC(=O)OCCOc1ccccc1"
  property: "growth inhibition"
  recorded_result: 7.2
- compound: "CC(C)n1c(=O)nc(-c2ccccc2)c2cc3c(cc21)OCO3"
  property: "growth inhibition"
  recorded_result: 7
- compound: "COC(=O)C1(C)CCCC2(C)C1CCC13OC(=O)C(C(C)C)(CC21)C3O (configuration not stated)"
  property: "growth inhibition"
  recorded_result: -33.7
- compound: "CC(=O)C1CCC(C)(O)CC1=O (configuration not stated)"
  property: "growth inhibition"
  recorded_result: -9.35
- compound: "COC(=O)C12C3C4C1C1C2C3C41C(=O)N(C(C)C)C(C)C (configuration not stated)"
  property: "growth inhibition"
  recorded_result: -3.55
- compound: "NC(=O)NC(=O)Cc1ccc([N+](=O)[O-])cc1"
  property: "growth inhibition"
  recorded_result: -5.15
- compound: "COc1ccc(CCNC(=O)C(Sc2ccccn2)c2ccccc2)cc1OC (configuration not stated)"
  property: "growth inhibition"
  recorded_result: 23.1
- compound: "O/N=C1\\CCCC\\C1=N/O.O/N=C1\\CCCC\\C1=N/O.[Pt]"
  property: "growth inhibition"
  recorded_result: 19.3
- compound: "O=C1CSCCO1"
  property: "growth inhibition"
  recorded_result: -37
- compound: "CNn1c(C)n[nH]c1=O"
  property: "growth inhibition"
  recorded_result: 20.6
- compound: "Cc1ccc(S(=O)(=O)/C=C\\S(=O)(=O)c2ccc(C)cc2)cc1"
  property: "growth inhibition"
  recorded_result: -28.4
- compound: "O[C@H]1[C@H]2[C@H](O)C[C@H](CCOCc3ccccc3)CN2C[C@H]1O"
  property: "growth inhibition"
  recorded_result: 20

---

experiment: NCI Yeast Anticancer Drug Screen. Data for the mlh1 rad18 strain (AID 175); conditions: S. cerevisiae mlh1 rad18 strain growth inhibition; at 50.0 µM; stronger effect = higher value
About 79,000 compounds went through this panel and 15% of them were active in at least one assay; those are over-represented in the sample as a whole.
The compounds listed here are annotated with their growth inhibition.
property: growth inhibition (%)

- compound: "COc1ccc2cc1Oc1ccc(cc1)CC1c3cc(c(OC)cc3CCN1C)Oc1c3c(cc4c1C(C2)N(C)CC4)OCO3 (stereo not given)"
  recorded_result: 3.45
- compound: "Oc1ccc(O)c(CCCc2cc(O)ccc2O)c1"
  recorded_result: 49.5
- compound: "c1ccc(-c2nnc(SCc3nc4ccccc4[nH]3)o2)cc1"
  recorded_result: 52
- compound: "ClC(Cl)C1OCCOCCO1"
  recorded_result: -5.8
- compound: "CN(C)c1ccc(/C=c2/sc3nc(=O)c(-c4ccccc4NC(=O)C(F)(F)F)nn3c2=O)cc1"
  recorded_result: -5.15
- compound: "O=c1oc2cc(O)ccc2cc1-c1nc2ccccc2o1"
  recorded_result: -4.1
- compound: "O=C1C(OC(=O)c2ccccc2)=C(OC(=O)c2ccccc2)C(=O)C(OC(=O)c2ccccc2)=C1OC(=O)c1ccccc1"
  recorded_result: 2.75
- compound: "Cc1ccc(N2[C@H]3CCCN3c3ccc(C)cc3[C@@H]2C(F)(F)F)cc1"
  recorded_result: 2
- compound: "CC1(O)CCC(O)CC1CC[N+](C)(C)[O-] (stereo not given)"
  recorded_result: 5.55
- compound: "Cn1c2ccccc2c(=S)c2c(O)cc3c(c21)C=CC(C)(C)O3"
  recorded_result: 21.6

---

experiment: NCI Yeast Anticancer Drug Screen. Data for the sgs1 mgt1 strain (AID 161);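 note: 0% = growth of cultures given vehicle only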; details: S. cerevisiae sgs1 mgt1 strain, at 50.0 µM, stronger effect = higher value
The panel holds about 79,000 compounds, 15% with a hit somewhere; the sample as a whole holds those more often.
The compounds listed here are annotated with their growth inhibition.

- compound: "c1ccc(CSc2cnnc3ccccc23)cc1"
  growth inhibition [%]: 6
- compound: "CCCCOC(=O)C(=O)/C(=C\\n1c(=S)[nH]c2cc(C)ccc21)C(=O)C=C(C)C"
  growth inhibition [%]: 3.05
- compound: "CC[N+](C)(C)c1ccc(/C=C(/C#N)C(=O)OC)cc1"
  growth inhibition [%]: 12.8
- compound: "CCOC(COc1ccc2ccccc2c1)OCC"
  growth inhibition [%]: 0.55
- compound: "COc1cc(/C=C/C(=O)c2sc(NNC(C)=O)nc2C)ccc1O"
  growth inhibition [%]: 19.3
- compound: "Cc1nc(C(N)=S)sc1C(=O)CC(=O)C(=O)Nc1c(C(C)C)cccc1C(C)C"
  growth inhibition [%]: -31.8
- compound: "CC(C)c1ccccc1N1C(=O)CC(Sc2ccccc2N)C1=O (centres undefined)"
  growth inhibition [%]: -9.25
- compound: "COc1ccc(OC)c(N=Nc2cc(OC)ccc2OC)c1"
  growth inhibition [%]: 1.1
- compound: "O=C(Oc1ccccc1Cl)C1=C(C(=O)Oc2ccccc2Cl)CCC1"
  growth inhibition [%]: 45.5
- compound: "CN(CCC(=O)O)S(=O)(=O)c1ccccc1"
  growth inhibition [%]: -10.6
- compound: "Cc1ccc(Nc2nc(NS(=O)(=O)c3cc(C)c(Cl)cc3S)n(C)n2)cc1"
  growth inhibition [%]: -29.7
- compound: "CCCNC(=O)c1ccccc1O"
  growth inhibition [%]: 3.9
- compound: "NC(=O)C(CO)NC(=O)c1ccc[n+](Cc2ccccc2)c1 (centres undefined)"
  growth inhibition [%]: -1.2
- compound: "CN(C)CC1CC(O)C(CN(C)C)CC1O (centres undefined)"
  growth inhibition [%]: -20.2
- compound: "C=CCC1=C(C)C[C@@H]2CCC(=O)C=C12"
  growth inhibition [%]: -8.5
- compound: "CC(=O)Oc1ccccc1C(OC(C)=O)OC(C)=O"
  growth inhibition [%]: 12.5
- compound: "NS(=O)(=O)c1ccc(NC(=S)/N=C/c2c(O)c3ccccc3oc2=O)cc1"
  growth inhibition [%]: 16.3
- compound: "CCOC(=O)C1=C(C)C/C(=N/NC(N)=O)CC1"
  growth inhibition [%]: -0.95
- compound: "CC(=O)OCC1OC(n2cnc3c(=S)nc[nH]c32)C(OC(C)=O)C1N(C)C(C)=S (centres undefined)"
  growth inhibition [%]: 37.6
- compound: "O=C1C[C@@]23CCC4(CC2=CCC[C@H]3O1)OCCO4"
  growth inhibition [%]: 3.2
- compound: "CC(=O)OC1CCC2(C)C(=CCC3C2CCC2(C)C3CCC23OCCS3)C1 (centres undefined)"
  growth inhibition [%]: 9.35
- compound: "O=[N+]([O-])c1ccc(CN2CCC(C(=S)Nc3ccccc3)=C2c2ccccc2)cc1"
  growth inhibition [%]: 8.8
- compound: "O=[N+]([O-])c1ccc(C(O)C(c2ccccc2)S(=O)(=O)N2CCCCC2)cc1 (centres undefined)"
  growth inhibition [%]: 17.1
- compound: "C=C[C@@]1(C)CC(=O)[C@]2(O)[C@@]3(C)[C@@H](O)CCC(C)(C)[C@@H]3[C@H](O)[C@@H](OC(C)=O)[C@@]2(C)O1"
  growth inhibition [%]: -5.75
- compound: "NC(CCC(=O)NC(CSCNC(=O)Nc1ccc(Cl)cc1)C(=O)NCC(=O)O)C(=O)O (centres undefined)"
  growth inhibition [%]: -1.65
- compound: "COc1cc(NS(=O)(=O)c2ccc(C)cc2)c2c(c1N)C(=O)c1ccccc1C2=O"
  growth inhibition [%]: -4.1
- compound: "O=[N+]([O-])c1cc2c(cc1Br)C1C(C3C2C2(Cl)C(Cl)=C(Cl)C3(Cl)C2(Cl)Cl)C2(Cl)C(Cl)=C(Cl)C1(Cl)C2(Cl)Cl (centres undefined)"
  growth inhibition [%]: 24.6
- compound: "COC(=O)c1cc2/c(=N/O)c3ccccc3sc2o1"
  growth inhibition [%]: -2.1
- compound: "CCCCCC/C=C1\\CCC(CN(C)C)C1=O (centres undefined)"
  growth inhibition [%]: 91.1
- compound: "O=C(O)c1ccc([N+](=O)[O-])c(P(=O)(O)O)c1"
  growth inhibition [%]: -12.2
- compound: "CN(C)/N=C1/CCC(C(F)(F)F)(C(F)(F)F)O1"
  growth inhibition [%]: 41.5
- compound: "CC(C)(C)NC(NC(C)(C)C)=C(C(Cl)=C(Cl)Cl)[N+](=O)[O-]"
  growth inhibition [%]: -6.15
- compound: "O=c1ccc(-c2ccccc2)n[nH]1"
  growth inhibition [%]: -28.3
- compound: "COc1ccc(C(c2cc3c(cc2O)OCO3)N2CCN(C(c3ccc(OC)cc3)c3cc4c(cc3O)OCO4)CC2)cc1 (centres undefined)"
  growth inhibition [%]: 5.05
- compound: "Nc1ccc(N=Nc2ccc(C(=O)O)cc2)cc1"
  growth inhibition [%]: 18.1
- compound: "Cc1[nH]c(=O)[nH]c(=O)c1CCS"
  growth inhibition [%]: 5.3
- compound: "O=C1N(c2cccc(F)c2)C(=O)N1c1cccc(F)c1"
  growth inhibition [%]: -9.1
- compound: "COC(=O)C(=O)C(C#N)c1c(Cl)cccc1Cl (centres undefined)"
  growth inhibition [%]: 0.05
- compound: "CC1CCCCN1Cc1ccccc1COC(=O)c1cccc(Br)c1 (centres undefined)"
  growth inhibition [%]: 43.3
- compound: "COc1cc(C2c3c(oc4ccccc4c3=O)Oc3oc4ccccc4c(=O)c32)cc(OC)c1O"
  growth inhibition [%]: 5.25
- compound: "C1CCC(N=C2N(C3CCCCC3)C(=NC3CCCCC3)N2C2CCCCC2)CC1"
  growth inhibition [%]: -7.2
- compound: "O=C(OCc1ccccc1C1CSCSC1)c1cc(C(=O)OCc2ccccc2C2CSCSC2)c(C(=O)OCc2ccccc2C2CSCSC2)cc1C(=O)OCc1ccccc1C1CSCSC1"
  growth inhibition [%]: -10.6
- compound: "CCn1ncc2c1nc(-c1ccccc1)c[n+]2[O-]"
  growth inhibition [%]: -34.5
- compound: "O=C1NC(O)c2cccc(F)c2O1 (centres undefined)"
  growth inhibition [%]: 43.4
